Molecular target: T1, recombinant human IL-6 (human, UniProt P05231 30-212)
T1 construct: Bought protein
T1 sequence (P05231 30-212 limits assumed): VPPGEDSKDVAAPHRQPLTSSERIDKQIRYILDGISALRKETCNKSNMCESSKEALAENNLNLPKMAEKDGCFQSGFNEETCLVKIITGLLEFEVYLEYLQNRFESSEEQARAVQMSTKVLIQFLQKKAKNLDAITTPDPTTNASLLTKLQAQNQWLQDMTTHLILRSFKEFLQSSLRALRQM
Assay: SPR Biacore, supernatant Ab on Protein A chip, IL-6 analyte, 25 C
Procedure: Antibodies were captured on a Protein A chip (GE) by injecting 1:20 dilution of cell supernatant at 10 μL/min for 60 seconds. […] The sensor chip was regenerated by a 60 seconds injection of 10 mM Glycine pH 1.7 at flow rate of 50 μL/min. […] For this setup, 1 μg/mL of purified antibody was injected over a Protein A chip at 10 μL/min for 25-28 seconds. Data analysis for supernatant and purified samples were performed using BIAevaluation software (GE). […]
Each entry below carries its reported pKd.
Remember, pKd is on a log scale: it is -log10 of the molar concentration.

Example cases with answers are listed next.
>  <binder>
anti-IL-6 antibody, light chain A54L (heavy chain WT) (antibody, V domains shown, See note of m2; also called WT / A54L) VH: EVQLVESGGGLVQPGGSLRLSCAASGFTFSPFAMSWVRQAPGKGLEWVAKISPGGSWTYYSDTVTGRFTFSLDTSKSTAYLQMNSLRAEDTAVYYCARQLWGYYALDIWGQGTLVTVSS VL: DIQLTQSPSSLSASVGDRVTITCSASISVSYMYWYQQKPGKAPKLLIYDMSNLLSGVPSRFSGSGSGTDFTLTISSLQPEDFATYYCMQWSGYPYTFGQGTKVEIK

>  <pKd>
9.30

$$$$
>  <binder>
anti-IL-6 antibody, light chain N52S (heavy chain WT) (antibody, V domains shown, See note of m2; also called WT / N52S) VH: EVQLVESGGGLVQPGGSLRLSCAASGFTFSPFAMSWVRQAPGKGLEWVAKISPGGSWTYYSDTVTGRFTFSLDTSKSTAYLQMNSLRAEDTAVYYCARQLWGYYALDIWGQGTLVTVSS VL: DIQLTQSPSSLSASVGDRVTITCSASISVSYMYWYQQKPGKAPKLLIYDMSSLASGVPSRFSGSGSGTDFTLTISSLQPEDFATYYCMQWSGYPYTFGQGTKVEIK

>  <pKd>
9.45

$$$$

Read the next record carefully.
Inquiry: Any idea what its pKd is? The binder is anti-IL-6 antibody, light chain V29L (heavy chain WT) (antibody, V domains shown, See note of m2; also called WT / V29L) VH: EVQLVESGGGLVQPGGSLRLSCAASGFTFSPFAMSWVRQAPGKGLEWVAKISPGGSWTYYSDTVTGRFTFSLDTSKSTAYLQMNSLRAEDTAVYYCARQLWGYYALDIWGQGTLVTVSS VL: DIQLTQSPSSLSASVGDRVTITCSASISLSYMYWYQQKPGKAPKLLIYDMSNLASGVPSRFSGSGSGTDFTLTISSLQPEDFATYYCMQWSGYPYTFGQGTKVEIK
Reply text: 9.31
